molecular target: human Y4 receptor (human, UniProt P50391 1-375); assay: 125I-PP displacement
Sequence (P50391 whole entry): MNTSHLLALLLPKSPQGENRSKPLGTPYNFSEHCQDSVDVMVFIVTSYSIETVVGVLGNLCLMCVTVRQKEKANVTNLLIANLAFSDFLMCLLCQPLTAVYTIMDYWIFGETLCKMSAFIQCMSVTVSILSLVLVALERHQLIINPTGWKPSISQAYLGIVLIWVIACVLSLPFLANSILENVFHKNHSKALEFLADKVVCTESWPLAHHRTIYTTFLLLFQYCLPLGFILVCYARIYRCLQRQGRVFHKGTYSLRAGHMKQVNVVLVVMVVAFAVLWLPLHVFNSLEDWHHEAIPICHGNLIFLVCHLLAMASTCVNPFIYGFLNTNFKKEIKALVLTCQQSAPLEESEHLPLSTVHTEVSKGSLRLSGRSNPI
observable: IC50 (pM)
Answer with a number only, understood to be in pM.

Consider the reported IC50 for these binders:
HAPLEPVYPGDNATPEQMAQYAADLRRYINMLTRPRY [compound of SEQ ID NO:53 (code 6650)] : 170
APKEPVYPGDNATPEQMAQYAADLRRYINMLTRPRY [6463] : 670

Consider now this further binder.
Challenge: Endpoint output: IC50 of KPLEPVYPGDNATPEQMAQYAADLRRYINMLTRPRY [6434] . Value?
Response given: 250
